tested on: Candida albicans; experiment: Antifungal activity against Candida albicans MTCC 227 assessed as growth inhibition after 24 to 48 hrs by broth microdilution method; type: functional
Each entry below lists one item and its recorded MIC value.
The reply should be a number in µg/mL, with the unit left off.

Cc1nn(-c2ccccc2)c(-n2ccnc2)c1C1C(C#N)=C(N)N(c2cccc(O)c2)C2=C1C(=O)CC(C)(C)C2 (configuration not stated) | 1000

Exercise: Please look up its MIC: Cc1nn(-c2ccccc2)c(-n2ccnc2)c1C1C(C(N)=O)=C(N)N(c2ccc(Cl)cc2)C2=C1C(=O)CC(C)(C)C2 (configuration not stated)
Key: 250

Exercise: Please look up its MIC: Cc1nn(-c2ccccc2)c(-n2ccnc2)c1C1C(C(N)=O)=C(N)N(c2cccc(O)c2)C2=C1C(=O)CC(C)(C)C2 (configuration not stated)
Key: 500

Exercise: Please look up its MIC: Cc1nn(-c2ccccc2)c(-n2ccnc2)c1C1C(C#N)=C(N)N(c2ccc(O)cc2)C2=C1C(=O)CC(C)(C)C2 (configuration not stated)
Key: 500

====

tested on: Bacillus subtilis; experiment: Antibacterial activity against Bacillus subtilis MTCC 441 assessed as growth inhibition after 24 to 48 hrs by broth microdilution method; format: functional
Each entry below lists one item and its recorded MIC value.
The reply should be a number in µg/mL, with the unit left off.

Exercise: Please look up its MIC: Cc1nn(-c2ccccc2)c(-n2ccnc2)c1C1C(C#N)=C(N)N(c2ccccc2)C2=C1C(=O)CC(C)(C)C2 (stereo unspecified)
Key: 250

Exercise: Please look up its MIC: Cc1nn(-c2ccccc2)c(-n2ccnc2)c1C1C(C#N)=C(N)N(c2ccc(Cl)cc2)C2=C1C(=O)CC(C)(C)C2 (stereo unspecified)
Key: 200

Exercise: Please look up its MIC: Cc1nn(-c2ccccc2)c(-n2ccnc2)c1C1C(C(N)=O)=C(N)N(c2ccc(O)cc2)C2=C1C(=O)CC(C)(C)C2 (stereo unspecified)
Key: 200

Exercise: Please look up its MIC: CCOC(=O)C1=C(N)N(c2cccc(O)c2)C2=C(C(=O)CC(C)(C)C2)C1c1c(C)nn(-c2ccccc2)c1-n1ccnc1 (stereo unspecified)
Key: 500

Exercise: Please look up its MIC: Cc1nn(-c2ccccc2)c(-n2ccnc2)c1C1C(C(N)=O)=C(N)N(c2ccccc2)C2=C1C(=O)CC(C)(C)C2 (stereo unspecified)
Key: 125

Exercise: Please look up its MIC: CCn1cc(C(=O)O)c(=O)c2cc(F)c(N3CCNCC3)cc21 [NORFLOXACIN]
Key: 25

Exercise: Please look up its MIC: Cc1nn(-c2ccccc2)c(-n2ccnc2)c1C1C(C(N)=O)=C(N)N(c2ccc(O)cc2)C2=C1C(=O)CCC2 (stereo unspecified)
Key: 200

Exercise: Please look up its MIC: CCOC(=O)C1=C(N)N(c2ccc(C)cc2)C2=C(C(=O)CC(C)(C)C2)C1c1c(C)nn(-c2ccccc2)c1-n1ccnc1 (stereo unspecified)
Key: 250

Exercise: Please look up its MIC: O=C(O)c1cn(C2CC2)c2cc(N3CCNCC3)c(F)cc2c1=O [CIPROFLOXACIN]
Key: 100

====

test system: Escherichia coli; experiment: Antibacterial activity against Escherichia coli MTCC 443 assessed as growth inhibition after 24 to 48 hrs by broth microdilution method; assay type: functional
Each entry below lists one item and its recorded MIC value.
The reply should be a number in µg/mL, with the unit left off.

CCOC(=O)C1=C(N)N(c2ccc(C)cc2)C2=C(C(=O)CC(C)(C)C2)C1c1c(C)nn(-c2ccccc2)c1-n1ccnc1 (centres undefined) | 125
Cc1nn(-c2ccccc2)c(-n2ccnc2)c1C1C(C(N)=O)=C(N)N(c2ccccc2)C2=C1C(=O)CC(C)(C)C2 (centres undefined) | 200
Cc1nn(-c2ccccc2)c(-n2ccnc2)c1C1C(C(N)=O)=C(N)N(c2ccc(O)cc2)C2=C1C(=O)CC(C)(C)C2 (centres undefined) | 250

Turning to the following compound.
Exercise: Item: CCOC(=O)C1=C(N)N(c2ccc(O)cc2)C2=C(C(=O)CCC2)C1c1c(C)nn(-c2ccccc2)c1-n1ccnc1 (centres undefined) Test system: Escherichia coli Read-out: MIC Value: ?
Key: 62.5

====

test system: Candida albicans; assay: Antifungal activity against Candida albicans MTCC 227 assessed as growth inhibition after 24 to 48 hrs by broth microdilution method; format: functional
Each entry below lists one item and its recorded MIC value.
The reply should be a number in µg/mL, with the unit left off.

CCOC(=O)C1=C(N)N(c2ccc(O)cc2)C2=C(C(=O)CCC2)C1c1c(C)nn(-c2ccccc2)c1-n1ccnc1 (stereo not drawn) | 500
Cc1nn(-c2ccccc2)c(-n2ccnc2)c1C1C(C#N)=C(N)N(c2ccccc2)C2=C1C(=O)CC(C)(C)C2 (stereo not drawn) | 1000
Cc1ccc(N2C(N)=C(C#N)C(c3c(C)nn(-c4ccccc4)c3-n3ccnc3)C3=C2CC(C)(C)CC3=O)cc1 (stereo not drawn) | 1000
Cc1nn(-c2ccccc2)c(-n2ccnc2)c1C1C(C(N)=O)=C(N)N(c2ccccc2)C2=C1C(=O)CC(C)(C)C2 (stereo not drawn) | 250
CCOC(=O)C1=C(N)N(c2ccc(O)cc2)C2=C(C(=O)CC(C)(C)C2)C1c1c(C)nn(-c2ccccc2)c1-n1ccnc1 (stereo not drawn) | 500
Cc1nn(-c2ccccc2)c(-n2ccnc2)c1C1C(C(N)=O)=C(N)N(c2ccc(O)cc2)C2=C1C(=O)CC(C)(C)C2 (stereo not drawn) | 500
CCOC(=O)C1=C(N)N(c2ccc(OC)cc2)C2=C(C(=O)CC(C)(C)C2)C1c1c(C)nn(-c2ccccc2)c1-n1ccnc1 (stereo not drawn) | 1000
CCOC(=O)C1=C(N)N(c2cccc(O)c2)C2=C(C(=O)CC(C)(C)C2)C1c1c(C)nn(-c2ccccc2)c1-n1ccnc1 (stereo not drawn) | 250
COc1ccc(N2C(N)=C(C#N)C(c3c(C)nn(-c4ccccc4)c3-n3ccnc3)C3=C2CC(C)(C)CC3=O)cc1 (stereo not drawn) | 1000
Cc1nn(-c2ccccc2)c(-n2ccnc2)c1C1C(C(N)=O)=C(N)N(c2ccc(O)cc2)C2=C1C(=O)CCC2 (stereo not drawn) | 1000

Exercise: Please look up its MIC: Cc1nn(-c2ccccc2)c(-n2ccnc2)c1C1C(C#N)=C(N)N(c2ccccc2O)C2=C1C(=O)CC(C)(C)C2 (stereo not drawn)
Key: 1000

====

test system: Bacillus subtilis; assay: Antibacterial activity against Bacillus subtilis MTCC 441 assessed as growth inhibition after 24 to 48 hrs by broth microdilution method; assay type: functional
Each entry below lists one item and its recorded MIC value.
Give the value; after it, write the unit.

CCOC(=O)C1=C(N)N(c2ccc(O)cc2)C2=C(C(=O)CC(C)(C)C2)C1c1c(C)nn(-c2ccccc2)c1-n1ccnc1 (configuration not stated) | 62.5 µg/mL

Exercise: Please look up its MIC: Cc1nn(-c2ccccc2)c(-n2ccnc2)c1C1C(C#N)=C(N)N(c2cccc(O)c2)C2=C1C(=O)CC(C)(C)C2 (configuration not stated)
Key: 500 µg/mL

Exercise: Please look up its MIC: Cc1nn(-c2ccccc2)c(-n2ccnc2)c1C1C(C#N)=C(N)N(c2ccc(O)cc2)C2=C1C(=O)CC(C)(C)C2 (configuration not stated)
Key: 250 µg/mL

Exercise: Please look up its MIC: COc1ccc(N2C(N)=C(C#N)C(c3c(C)nn(-c4ccccc4)c3-n3ccnc3)C3=C2CC(C)(C)CC3=O)cc1 (configuration not stated)
Key: 125 µg/mL

Exercise: Please look up its MIC: CCOC(=O)C1=C(N)N(c2ccc(OC)cc2)C2=C(C(=O)CC(C)(C)C2)C1c1c(C)nn(-c2ccccc2)c1-n1ccnc1 (configuration not stated)
Key: 125 µg/mL

Exercise: Please look up its MIC: "O=C(N[C@H](CO)[C@H](O)c1ccc([N+](=O)[O-])cc1)C(Cl)Cl"
Key: 50 µg/mL

Exercise: Please look up its MIC: CCOC(=O)C1=C(N)N(c2ccc(Cl)cc2)C2=C(C(=O)CC(C)(C)C2)C1c1c(C)nn(-c2ccccc2)c1-n1ccnc1 (configuration not stated)
Key: 100 µg/mL
